target: Human immunodeficiency virus type 1 integrase (Human immunodeficiency virus 1, UniProt Q7ZJM1)
Sequence (Q7ZJM1 whole entry): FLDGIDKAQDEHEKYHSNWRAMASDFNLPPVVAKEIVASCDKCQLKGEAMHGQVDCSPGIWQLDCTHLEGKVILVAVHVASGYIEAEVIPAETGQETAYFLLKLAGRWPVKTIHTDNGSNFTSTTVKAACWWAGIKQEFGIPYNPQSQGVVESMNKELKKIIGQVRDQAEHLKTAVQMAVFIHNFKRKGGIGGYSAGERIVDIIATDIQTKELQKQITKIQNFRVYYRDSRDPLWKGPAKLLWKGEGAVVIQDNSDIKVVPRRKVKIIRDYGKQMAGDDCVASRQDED
property: pIC50
Field pIC50 (float): negative decimal logarithm of the concentration in molar.

Ask | Quick one: pIC50 for COc1cc(F)ccc1Cn1ccc2c3c(ncc21)C(=O)N(O)CC3 ?
Reply | 7.39

###

Each entry below carries its recorded pIC50.
assay: Inhibition of DNA polymerase gamma (unknown origin); parameters: species or system Homo sapiens
Please treat pIC50 as minus the base-10 logarithm of the molar concentration.

{"compound": "Cc1cn([C@H]2C[C@H](N=[N+]=[N-])[C@@H](COP(=O)(O)OP(=O)(O)OP(=O)(O)O)O2)c(=O)[nH]c1=O [ZIDOVUDINE TRIPHOSPHATE]", "pIC50": 5.43}

Consider the record given below.
Ask | Entry COc1cc(F)ccc1Cn1ccc2c3c(ncc21)C(=O)N(O)CC3 has what pIC50?
Reply | 5.15
